Recorded measurements of IC50, one per entry
tested-system: hSCN3A (Homo sapiens, UniProt Q9NY46)
Construct: expressed in transfected cells
Sequence (Q9NY46 whole entry): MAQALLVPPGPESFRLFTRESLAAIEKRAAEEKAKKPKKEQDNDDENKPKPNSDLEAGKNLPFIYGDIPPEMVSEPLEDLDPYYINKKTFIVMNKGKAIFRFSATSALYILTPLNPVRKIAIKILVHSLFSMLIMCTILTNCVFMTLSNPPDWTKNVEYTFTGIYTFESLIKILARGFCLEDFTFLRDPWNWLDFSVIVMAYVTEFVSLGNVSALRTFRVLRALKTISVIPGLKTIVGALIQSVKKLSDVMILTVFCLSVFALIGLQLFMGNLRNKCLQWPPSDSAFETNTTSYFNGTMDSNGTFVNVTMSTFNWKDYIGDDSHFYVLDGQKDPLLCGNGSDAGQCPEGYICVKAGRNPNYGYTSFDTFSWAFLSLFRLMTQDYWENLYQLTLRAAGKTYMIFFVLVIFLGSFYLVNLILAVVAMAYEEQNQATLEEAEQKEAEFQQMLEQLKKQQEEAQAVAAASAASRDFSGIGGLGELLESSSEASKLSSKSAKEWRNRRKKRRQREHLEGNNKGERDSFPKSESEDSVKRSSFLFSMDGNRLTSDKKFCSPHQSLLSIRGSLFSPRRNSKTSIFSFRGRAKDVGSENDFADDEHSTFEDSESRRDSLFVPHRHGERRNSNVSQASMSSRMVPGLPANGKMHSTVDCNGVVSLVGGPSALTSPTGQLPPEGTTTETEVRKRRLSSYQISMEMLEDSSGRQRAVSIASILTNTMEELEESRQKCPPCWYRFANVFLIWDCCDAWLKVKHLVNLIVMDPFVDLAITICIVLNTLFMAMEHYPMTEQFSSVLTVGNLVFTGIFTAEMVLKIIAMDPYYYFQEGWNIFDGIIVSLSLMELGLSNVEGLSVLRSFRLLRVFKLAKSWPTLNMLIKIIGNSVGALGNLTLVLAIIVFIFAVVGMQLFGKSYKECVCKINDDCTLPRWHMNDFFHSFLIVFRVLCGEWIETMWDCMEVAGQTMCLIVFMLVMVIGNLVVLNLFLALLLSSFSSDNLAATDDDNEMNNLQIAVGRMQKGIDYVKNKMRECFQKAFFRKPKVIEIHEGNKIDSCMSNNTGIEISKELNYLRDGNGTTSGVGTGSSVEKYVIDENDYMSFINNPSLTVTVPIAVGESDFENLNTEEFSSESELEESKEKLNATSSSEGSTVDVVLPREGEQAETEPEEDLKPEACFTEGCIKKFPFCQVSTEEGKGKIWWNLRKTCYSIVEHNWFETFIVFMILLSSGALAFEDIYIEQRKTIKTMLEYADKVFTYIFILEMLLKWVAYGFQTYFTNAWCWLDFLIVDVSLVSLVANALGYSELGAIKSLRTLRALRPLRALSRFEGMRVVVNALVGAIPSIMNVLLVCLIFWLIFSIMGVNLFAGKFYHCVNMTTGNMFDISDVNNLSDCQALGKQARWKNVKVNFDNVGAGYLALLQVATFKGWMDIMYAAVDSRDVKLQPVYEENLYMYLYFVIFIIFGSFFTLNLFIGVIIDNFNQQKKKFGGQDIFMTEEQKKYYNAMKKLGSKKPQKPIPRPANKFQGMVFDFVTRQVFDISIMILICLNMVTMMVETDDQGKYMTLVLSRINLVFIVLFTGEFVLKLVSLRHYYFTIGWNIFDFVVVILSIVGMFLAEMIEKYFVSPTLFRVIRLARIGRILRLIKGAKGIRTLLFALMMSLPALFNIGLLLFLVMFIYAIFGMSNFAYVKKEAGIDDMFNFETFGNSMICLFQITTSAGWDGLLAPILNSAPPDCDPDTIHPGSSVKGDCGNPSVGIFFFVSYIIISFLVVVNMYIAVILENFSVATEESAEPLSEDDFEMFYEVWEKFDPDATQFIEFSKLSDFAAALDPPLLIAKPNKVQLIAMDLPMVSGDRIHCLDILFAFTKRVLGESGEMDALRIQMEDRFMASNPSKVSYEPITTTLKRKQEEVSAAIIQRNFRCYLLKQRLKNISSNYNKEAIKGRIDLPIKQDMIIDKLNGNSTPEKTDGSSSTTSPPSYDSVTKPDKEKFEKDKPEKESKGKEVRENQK
assay-protocol: Whole-cell patch-clamp electrophysiology (conventional or PatchXpress), HEK cells expressing hSCN3A, estimated IC-50
Assay type: cell-based
recorded-conditions: estimated IC-50, HEK cells expressing hSCN3A; class symbols or bounds; read-out: SCN3A EIC-50

Solved entries:
>>> recorded_result("Cn1nc(CC2CCCCC2)cc1Nc1ccc(S(=O)(=O)Nc2nccs2)c(O)c1")
"< 2000 nM"
>>> recorded_result("CN(C)c1ccc(CNCc2csc(Nc3ccc(S(=O)(=O)Nc4nccs4)cc3)n2)cc1")
"< 2000 nM"
>>> recorded_result("CC(C)(C)c1csc(Nc2ccc(S(=O)(=O)Nc3nccs3)c(C#N)c2)n1")
"2000 to 10000 nM"
>>> recorded_result("O=S(=O)(Nc1nccs1)c1ccc(Nc2cnn(Cc3ccc(Cl)cc3)c2)nc1")
"< 2000 nM"
>>> recorded_result("CC(C)(C)c1ccc(OCc2csc(Nc3ccc(S(=O)(=O)Nc4nccs4)cc3)n2)cc1")
"< 2000 nM"

Query: // lookup IC50 for O=S(=O)(Nc1nccs1)c1ccc(Nc2ncn(Cc3cccc(Cl)c3)n2)c(F)c1
Result: 2000 to 10000 nM

Query: What does the record list as IC50 for O=S(=O)(Nc1nccs1)c1ccc(Nc2nc(CCC3CCCC3)cs2)cc1 ?
Result: < 2000 nM

Query: // IC50 lookup, key: O=S(=O)(Nc1nccs1)c1ccc(Nc2cnn(CC(F)(F)F)c2)cc1F
Result: < 2000 nM

====

IC50 reference
tested-system: hSCN9A (Homo sapiens)
Construct: expressed in transfected cells
assay-protocol: Whole-cell patch-clamp electrophysiology (conventional or PatchXpress), HEK cells expressing hSCN9A, estimated IC-50
Assay type: cell-based
recorded-conditions: estimated IC-50, HEK cells expressing hSCN9A; class symbols or bounds; read-out: SCN9A EIC-50

Query: Reported IC50 for COc1cc(Cl)ccc1-c1cc(Nc2ccc(S(=O)(=O)Nc3nccs3)c(F)c2)n(C)n1 : what is it?
Result: < 2 µM

Query: Entry Cc1ccc(-n2nc(C)cc2Nc2ccc(S(=O)(=O)Nc3nccs3)c(F)c2)cc1 : reported IC50 = ?
Result: < 2 µM

Query: Which IC50 is listed for O=S(=O)(Nc1nccs1)c1ccc(Nc2ccn(Cc3ccc(Cl)cc3)n2)nc1 ?
Result: 2 to 10 µM

Query: Looking for the measured IC50 of COc1ccc(CCNCc2csc(Nc3ccc(S(=O)(=O)Nc4nccs4)cc3)n2)cc1OC , can you help?
Result: > 3 µM

Query: IC50; subject: Cc1cc(Nc2ccc(S(=O)(=O)Nc3nccs3)c(Cl)c2)n(-c2ccccc2)n1
Result: < 2 µM

Query: Consider the molecule Cc1cc(Nc2ccc(S(=O)(=O)Nc3ncc(C#N)s3)c(F)c2)n(-c2ccccc2)n1 and give its measured IC50.
Result: > 1 µM

Query: Field request: IC50 | item: O=S(=O)(Nc1nccs1)c1ccc(Nc2ccn(Cc3ccc(F)cc3)n2)cc1F
Result: < 2 µM

Query: Please give the measured IC50 for this molecule: COc1ccnc(Nc2ccc(S(=O)(=O)Nc3nccs3)cc2)n1
Result: > 3 µM

====

This section presents molecules with their documented IC50 values.
tested-system: hSCN9A (Homo sapiens, UniProt Q15858)
Construct: expressed in transfected cells
Sequence (Q15858 whole entry): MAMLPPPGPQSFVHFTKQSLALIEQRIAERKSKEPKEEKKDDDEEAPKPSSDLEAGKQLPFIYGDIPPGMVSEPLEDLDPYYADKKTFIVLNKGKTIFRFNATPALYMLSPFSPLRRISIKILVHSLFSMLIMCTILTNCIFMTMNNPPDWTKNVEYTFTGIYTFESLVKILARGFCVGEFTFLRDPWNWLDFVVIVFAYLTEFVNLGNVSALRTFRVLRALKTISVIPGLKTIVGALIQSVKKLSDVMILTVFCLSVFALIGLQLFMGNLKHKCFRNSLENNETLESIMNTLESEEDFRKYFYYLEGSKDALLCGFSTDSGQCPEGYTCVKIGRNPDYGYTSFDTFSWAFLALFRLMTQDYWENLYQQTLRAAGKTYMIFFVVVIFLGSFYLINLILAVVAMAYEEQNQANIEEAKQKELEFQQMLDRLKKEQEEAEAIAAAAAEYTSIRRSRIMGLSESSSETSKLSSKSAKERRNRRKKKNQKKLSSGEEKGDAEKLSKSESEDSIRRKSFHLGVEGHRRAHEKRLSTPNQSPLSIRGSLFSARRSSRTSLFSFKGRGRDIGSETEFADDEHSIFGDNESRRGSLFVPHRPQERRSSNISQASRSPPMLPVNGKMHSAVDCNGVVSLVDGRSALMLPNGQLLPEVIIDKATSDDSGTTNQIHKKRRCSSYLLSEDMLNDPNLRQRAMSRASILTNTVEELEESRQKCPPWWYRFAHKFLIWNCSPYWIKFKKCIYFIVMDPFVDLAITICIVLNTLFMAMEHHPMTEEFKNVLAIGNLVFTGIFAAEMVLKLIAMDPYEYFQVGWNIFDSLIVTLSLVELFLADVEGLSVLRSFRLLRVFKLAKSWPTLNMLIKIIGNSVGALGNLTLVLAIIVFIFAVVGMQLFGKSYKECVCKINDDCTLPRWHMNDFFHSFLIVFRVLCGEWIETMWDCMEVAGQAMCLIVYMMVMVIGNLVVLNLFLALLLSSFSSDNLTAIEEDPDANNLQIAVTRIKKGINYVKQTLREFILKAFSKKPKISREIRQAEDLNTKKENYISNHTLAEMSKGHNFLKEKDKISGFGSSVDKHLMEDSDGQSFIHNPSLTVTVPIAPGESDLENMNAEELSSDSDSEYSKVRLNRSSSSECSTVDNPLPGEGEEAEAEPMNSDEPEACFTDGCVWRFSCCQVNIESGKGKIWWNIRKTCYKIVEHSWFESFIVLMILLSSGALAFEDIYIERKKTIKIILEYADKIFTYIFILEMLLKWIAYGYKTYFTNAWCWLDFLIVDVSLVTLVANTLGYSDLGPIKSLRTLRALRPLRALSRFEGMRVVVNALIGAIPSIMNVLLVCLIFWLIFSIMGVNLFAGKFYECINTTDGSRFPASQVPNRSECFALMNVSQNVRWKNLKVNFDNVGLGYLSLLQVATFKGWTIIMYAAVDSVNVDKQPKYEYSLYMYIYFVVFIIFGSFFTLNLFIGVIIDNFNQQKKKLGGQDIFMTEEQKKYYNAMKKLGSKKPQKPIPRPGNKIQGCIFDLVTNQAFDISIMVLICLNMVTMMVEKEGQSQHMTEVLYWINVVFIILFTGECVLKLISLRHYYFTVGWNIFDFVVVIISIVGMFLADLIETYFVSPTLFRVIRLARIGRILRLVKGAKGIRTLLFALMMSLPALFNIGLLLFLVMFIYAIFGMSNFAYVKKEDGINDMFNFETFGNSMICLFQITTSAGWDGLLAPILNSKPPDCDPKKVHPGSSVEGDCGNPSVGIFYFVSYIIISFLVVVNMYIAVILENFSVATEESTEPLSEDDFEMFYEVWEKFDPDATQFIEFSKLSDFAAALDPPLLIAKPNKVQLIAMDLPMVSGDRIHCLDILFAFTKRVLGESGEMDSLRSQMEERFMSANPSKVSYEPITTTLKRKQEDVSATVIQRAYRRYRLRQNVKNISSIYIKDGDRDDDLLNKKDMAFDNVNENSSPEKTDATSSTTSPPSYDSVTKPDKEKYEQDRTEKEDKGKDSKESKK
assay-protocol: Whole-cell patch-clamp electrophysiology (conventional or PatchXpress), HEK cells expressing hSCN9A, estimated IC-50
Type: cell-based
recorded-conditions: estimated IC-50, HEK cells expressing hSCN9A; class symbols or bounds; read-out: SCN9A EIC-50

>>> recorded_result("O=S(=O)(Nc1nccs1)c1ccc(Nc2nc(CNCc3ccc(Cl)cc3)cs2)cc1")
"< 2 µM"
>>> recorded_result("Cc1cc(Nc2ccc(S(=O)(=O)Nc3nccs3)cc2)n(-c2ccc(Cl)cc2)n1")
"2 to 10 µM"
>>> recorded_result("CCc1nnc(NS(=O)(=O)c2ccc(Nc3cc(C)nn3-c3ccccc3)cc2F)s1")
"> 1 µM"
>>> recorded_result("O=S(=O)(Nc1nccs1)c1ccc(Nc2cnn(Cc3ccc(C(F)(F)F)cc3)c2)cc1F")
"< 2 µM"
>>> recorded_result("O=S(=O)(Nc1nccs1)c1ccc(Nc2nc(-c3ccc(C(F)(F)F)cc3F)cs2)cc1")
"> 1 µM"
>>> recorded_result("O=S(=O)(Nc1nccs1)c1ccc(Nc2cnn(Cc3ccc(Cl)c(C(F)(F)F)c3)c2)cc1F")
"< 2 µM"
>>> recorded_result("Cn1nc(Cc2ccc(Cl)c(F)c2)cc1Nc1ccc(S(=O)(=O)Nc2nccs2)cc1")
"< 2 µM"

Please find the next molecule below.
Query: Query (molecule): Cn1nc(Cc2ccc(C(F)(F)F)cc2)cc1Nc1ccc(S(=O)(=O)Nc2nccs2)cc1 ; field requested: IC50
Result: < 2 µM
